target: sigma-2 receptor (Cavia porcellus, UniProt H0V073); construct: their whole brains (without cerebellum) were rapidly removed and homogenized; from tissue; host or cells: guinea pig (male Hartley) whole brain without cerebellum, membrane homogenate; assay: Sigma-2 binding assay ([3H]DTG in the presence of (+)-SKF10047); conditions: inhibition % at 10 nM; guinea pig brain membranes, [3H]DTG; Table II; read-out: Sigma 2 Inhib. %
Sequence (H0V073 1-176): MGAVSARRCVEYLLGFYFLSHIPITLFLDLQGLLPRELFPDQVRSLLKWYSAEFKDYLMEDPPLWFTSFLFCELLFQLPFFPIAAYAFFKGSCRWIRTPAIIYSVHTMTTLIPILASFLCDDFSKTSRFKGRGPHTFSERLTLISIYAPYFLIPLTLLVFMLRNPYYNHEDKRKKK
Returns one of Fulfilled or Not fulfilled; Fulfilled when inhibition at 0.01 µM is >= 30%.

# check: inhibition at 0.01 µM of O=CNC(Cc1ccc(Cl)c(Cl)c1)CN1CCC(Cc2ccccc2)CC1 (centres unmarked) is greater than or equal to 30%
Fulfilled

Is reported inhibition at 0.01 µM greater than or equal to 30% here: NC(CCN1CCC(C(=O)Cc2ccccc2)CC1)c1ccccc1 (centres unmarked)
Not fulfilled
